Each entry below carries its recorded ER-phagy suppression.
System: U2OS
assayName: Here: values are normalized to the positive (DMSO; basel flux = defined as 100% suppression) and negative (250nM Torin1; mTOR inhibitor; maximal inducer of autophagy defined as 0% suppression) control compounds and represented as % of ER-phagy suppression. […] The impact of autophagy induction on cells is complex and depends on the affected target. […] Of note, treatment concentrations may be sub-optimal for specific compounds, leading to false negative annotations.
Assay type: functional, Homo sapiens
measurementParameters: Compound Concentration 1 uM, Timepoint 60 hours, Culturing Media DMEM, 1 % Penicillin/Streptomycin, 10% Fetal bovin serum Add-On: blasticidin, Screening Media Control DMEM, 10% Fetal bovin serum Add-On: 1 µg/ml Doxycyclin, Screening Media Samples DMEM, 10% Fetal bovin serum Add-On: 1 µg/ml Doxycyclin 250nM Torin1
// units = %; emit number, no label

These recorded examples may help you get a feel for the data.
molecule: O=c1[nH]c2ccc(Cl)cc2c(N[C@@H]2CN3CCC2CC3)c1-c1nc2ccccc2[nH]1
observationType: ER-phagy suppression
experimentalResult: 86.9183
//
molecule: Cc1cnc(-c2cc(Cl)ccc2F)cc1-n1c(=O)n(CC(N)=O)c2cnccc21
observationType: ER-phagy suppression
experimentalResult: -35.4053

Name the recorded ER-phagy suppression for O=C(NCCCN1CCOC1=O)c1cnc(NCc2cc(Br)ccc2Br)nc1NC1CCCC1 .
-40.5418

GET /values?readout=ER-phagy suppression&item= CCOc1cc(N2CCC(O)CC2)ccc1Nc1ncc2c(n1)N(C)c1ccccc1C(=O)N2C
10.8345

# query: ER-phagy suppression of entry CNC(=O)c1ccccc1Nc1cc(Nc2ccc(N3CCOCC3)cc2OC)ncc1C(F)(F)F
-16.508

Give the measured ER-phagy suppression of Cn1cnc2c(F)c(Nc3ccc(Br)cc3Cl)c(C(=O)NOCCO)cc21 .
22.2273

Sample Nc1c(C(=O)NCc2ccc(C(=O)NCCCC3CCCCC3)cc2)cnn1-c1ccccc1 — what was its ER-phagy suppression?
-35.2993

----------
Test system: U2OS
assayName: Here: values are normalized to the negative (DMSO; defined as 0% autophagy induction) and positive (250nM Torin1; mTOR inhibitor; defined as maximal inducer of autophagy = 100%) control compounds and represented as % of autophagy induction. […] The impact of autophagy induction on cells is complex and depends on the affected target. As such, the magnitude of a phenotype may not be equally mirrored in the %-value of autophagy induction and vice versa. The dynamics of the induction may indicate the mode of activation: e.g. activation via phosphorylation or a signaling cascade may occur fast, while activation via transcription factors may take considerably longer. […] Of note, treatment concentrations may be sub-optimal for specific compounds, leading to false negative annotations.
Assay type: functional, Homo sapiens
measurementParameters: Compound Concentration 2 uM, Timepoint 36 hours, Culturing Media DMEM, 1 % Penicillin/Streptomycin, 10% Fetal bovin serum Add-On: No, Screening Media Control DMEM, Screening Media Samples DMEM
Reported autophagy induction is given for each of the following molecules.

# example entries with known answers
molecule: C[C@@H](NCCc1ccc(O)cc1)[C@@H](O)c1ccc(O)cc1.Cl (relative stereo)
autophagy induction: -8.358%
--
molecule: CCOC(=O)c1cc(C#N)c(N2CCC(C(=O)NS(=O)(=O)Cc3ccccc3)CC2)nc1C
autophagy induction: -7.086%
--
molecule: O=C(O)CC/C=C\C[C@@H]1CO[C@H](c2ccccc2Cl)O[C@@H]1c1ccccc1O
autophagy induction: 1.68%
--
molecule: C[C@H](Cc1cc2c(c(C(N)=O)c1)N(CCCO)CC2)NCCOc1ccccc1OCC(F)(F)F
autophagy induction: -1.271%
--
molecule: COc1ccc(CNC(=O)c2cc(-c3cncc(Cl)c3)cnc2-c2ccccn2)nc1OC
autophagy induction: 1.004%
--
molecule: CCCCCNC(=O)NS(=O)(=O)c1cc([N+](=O)[O-])ccc1NC1CCCCC1
autophagy induction: 0.8075%
--
molecule: CCCCN(CCCC)C(=O)CN1C[C@@H](c2ccc3c(c2)OCO3)[C@H](C(=O)O)[C@H]1c1ccc(OC)cc1
autophagy induction: -11.2096%
--
molecule: COc1ccc(S(=O)(=O)N2c3ccc(Cl)cc3[C@](O)(c3ccccc3Cl)[C@@H]2C(=O)N2CCC[C@H]2C(N)=O)cc1OC
autophagy induction: -13.7756%
--
molecule: CC1=C2C[C@H]3[C@@H](CC=C4C[C@@H](O)CC[C@@]43C)[C@@H]2CC[C@]12O[C@@H]1C[C@H](C)CN[C@H]1[C@H]2C
autophagy induction: -11.3886%
--
molecule: O=C(Nc1ccc(Cl)cc1)Nc1cccc(-c2cccc(N3CCCC3)n2)c1
autophagy induction: 8.553%

Tell me reported autophagy induction for Cc1nnn(-c2ccc(-c3ccc(C4(C(=O)O)CC4)cc3)cc2)c1NC(=O)O[C@H](C)c1ccccc1 , tested with U2OS.
6.347%

Find the measured autophagy induction: item CC(C)NCC(O)c1ccc(N)c(C#N)c1 (stereo not given) , target or system U2OS.
-4.0163%

Could you share what autophagy induction was measured for Cc1cc(NC(=O)Nc2ccc(N(C)C)cc2)c2cc(F)cc(F)c2n1 , tested on U2OS?
-6.099%

Form: Entry = O=C(O)C1CN(Cc2ccc(-c3nc4cc(Cc5ccccc5F)ccc4s3)c(F)c2)C1 | System = U2OS | autophagy induction = ____
14.8366%

Kindly state the measured autophagy induction obtained for COc1cccc(-c2c(C)n(Cc3c(F)cccc3C(F)(F)F)c(=O)n(C[C@H](NCCCC(=O)[O-])c3ccccc3)c2=O)c1F.[Na+] [ELAGOLIX SODIUM] with U2OS.
1.282%

Record N#Cc1cccc(C(=O)Nc2cc(-c3ccccc3)nn2-c2ccccc2)c1 : what is its autophagy induction with U2OS?
2.3802%

Param readout = autophagy induction; param system = U2OS; param query = CN(C)S(=O)(=O)c1ccc(NC(=S)N2CCC(C(O)(c3ccccc3)c3ccccc3)CC2)cc1 ; response: value
-2.641%

// map CC(C)NC(=O)c1ccc(C#Cc2ccncc2)cn1 to recorded autophagy induction (system: U2OS)
0.3174%

Under U2OS: autophagy induction value of CCC[C@H](Oc1cc(C)c(-n2cc(C(F)(F)F)cn2)c(C)c1)c1ccc(C(=O)NCCC(=O)O)cc1 ?
-7.132%
